Items are presented alongside their recorded IC50.
Target: Endothelial lipase (EL) (Homo sapiens (Human), UniProt Q9Y5X9)
Sequence (Q9Y5X9 21-500): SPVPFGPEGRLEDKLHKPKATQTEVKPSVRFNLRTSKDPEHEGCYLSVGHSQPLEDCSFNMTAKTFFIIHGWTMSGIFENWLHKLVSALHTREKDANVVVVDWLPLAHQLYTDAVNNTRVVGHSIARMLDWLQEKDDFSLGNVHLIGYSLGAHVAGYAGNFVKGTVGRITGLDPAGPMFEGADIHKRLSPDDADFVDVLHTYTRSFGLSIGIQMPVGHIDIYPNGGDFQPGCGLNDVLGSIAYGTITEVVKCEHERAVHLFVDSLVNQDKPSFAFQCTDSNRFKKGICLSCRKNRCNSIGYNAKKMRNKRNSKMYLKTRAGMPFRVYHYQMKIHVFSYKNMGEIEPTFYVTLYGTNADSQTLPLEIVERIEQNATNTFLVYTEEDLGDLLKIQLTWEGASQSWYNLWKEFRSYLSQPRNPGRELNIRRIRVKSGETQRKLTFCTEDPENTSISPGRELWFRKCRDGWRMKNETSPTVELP
Test: EL assay: endothelial lipase activity with fluorescent substrate A10070 in DMPG vesicles
Format: biochemical
Details: EL from conditioned media of HT-1080 cells; 30 min incubation with compound at 37° C.; A10070/DMPG vesicles
Description: Endothelial lipase (EL) and hepatic lipase (HL) activities were measured using a fluorescent substrate, A10070, (Invitrogen, CA) doped into an artificial vesicle containing DMPG (Avanti Polar Lipids) as the excipient. […] The enzymatic assay was measured using 384-well white Optiplates. […] The reaction rates were measured on a Gemini plate reader with an excitation wavelength of 490 nm and an emission wavelength of 530 nm. […]

Example results:
- COCCn1cc(-c2ccc3nc(C(C(=O)NCCS(N)(=O)=O)S(C)(=O)=O)sc3c2)cn1 (stereo not shown): < 10 nM
- NS(=O)(=O)CCNC(=O)C(NC(=O)c1ccc(C(F)(F)F)cc1)c1nc2ccc(-c3ccc(C(=O)N4CCOCC4)cc3)cc2s1 (stereo not shown): < 10 nM
- C=CCS(=O)(=O)C(C(=O)NCCS(N)(=O)=O)c1nc2ccc(-c3ccc(CN4CCOCC4)cc3)cc2s1 (stereo not shown): < 10 nM
- CS(=O)(=O)C(C(=O)NCCS(N)(=O)=O)c1nc2ccc(-c3ccc(C(=O)N4CC(F)(F)C4)cc3)cc2s1 (stereo not shown): < 10 nM
- NS(=O)(=O)CCNC(=O)C(c1nc2ccc(-c3ccc(F)nc3)cc2s1)S(=O)(=O)Cc1ccccc1 (stereo not shown): < 10 nM

Which IC50 reading was recorded for the compound Cc1noc(C)c1-c1ccc2nc(C(C(=O)NCCS(N)(=O)=O)S(C)(=O)=O)sc2c1 (stereo not shown) ?
13 nM

Which IC50 reading was recorded for the compound NS(=O)(=O)CCNC(=O)C(c1nc2ccc(-c3ccc(F)nc3)cc2s1)S(=O)(=O)Cc1ccc(C(F)(F)F)cc1 (stereo not shown) ?
< 10 nM

Which IC50 reading was recorded for the compound CS(=O)(=O)C(C(=O)NCCS(=O)(=O)NCC(F)(F)F)c1nc2ccc(-c3ccnc(F)c3)cc2s1 (stereo not shown) ?
277 nM
